assay method text: Half life in human liver microsomes by HPLC analysis in presence of NADPH
Format: ADME, Microsome
result type: half-life (min)

If you can, please state the reported half-life value of CN(Cc1cccn1C)C(=O)C12CC3CC(CC(C3)C1)C2 . 60

If you can, please state the reported half-life value of CN(Cc1cccs1)C(=O)C12CC3CC(CC(C3)C1)C2 . 60
